- System: HCT-116
- ASSAY_INFO: Antiproliferative activity against human HCT116 cells incubated for 72 hrs by CCK8 assay
- CONDITION_DETAILS: HCT-116, 72 h
MEASURED_ENDPOINT: pIC50
// field semantics: pIC50 = negative decimal log of concentration (mol/L)

COMPOUND	VALUE_MEASURED
Cc1ccc(-n2nc3c(=O)n(CCCC(=O)NCCCCNc4cccc5c4C(=O)N(C4CCC(=O)NC4=O)C5=O)nc(C)c3c2C)cc1 (centres undefined)	4.29

Entry Cc1ccc(-n2nc3c(=O)n(CCCC(=O)NCCCCCNc4cccc5c4C(=O)N(C4CCC(=O)NC4=O)C5=O)nc(C)c3c2C)cc1 (centres undefined) , HCT-116 data, pIC50 value: 4.49

// pIC50 (HCT-116) for Cc1ccc(-n2nc3c(=O)n(CCCC(=O)NCCCOCCOCCOCCCNc4cccc5c4C(=O)N(C4CCC(=O)NC4=O)C5=O)nc(C)c3c2C)cc1 (centres undefined) = 4.64
